biological target: mouse DLL3 on CHO-K1-mDLL3 cells (mouse) (UniProt O88516); experiment: FACS, CHO-K1-mDLL3 cells, 20 nM antibody
Sequence (O88516 other isoform, or with tags, fused parts or gaps limits assumed): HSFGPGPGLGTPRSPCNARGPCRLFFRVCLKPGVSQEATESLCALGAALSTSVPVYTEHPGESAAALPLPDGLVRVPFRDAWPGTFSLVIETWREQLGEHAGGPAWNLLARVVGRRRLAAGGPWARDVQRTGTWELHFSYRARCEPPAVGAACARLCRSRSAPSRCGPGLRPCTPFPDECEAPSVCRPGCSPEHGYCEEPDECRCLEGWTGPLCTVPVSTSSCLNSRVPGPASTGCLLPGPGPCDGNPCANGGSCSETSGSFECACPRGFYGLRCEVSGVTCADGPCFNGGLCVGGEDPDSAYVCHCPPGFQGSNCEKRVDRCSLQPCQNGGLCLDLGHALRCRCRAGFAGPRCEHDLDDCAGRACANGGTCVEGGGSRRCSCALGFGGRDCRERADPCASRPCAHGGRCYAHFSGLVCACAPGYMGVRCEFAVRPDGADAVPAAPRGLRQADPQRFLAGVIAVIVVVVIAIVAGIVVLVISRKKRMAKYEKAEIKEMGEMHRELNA
readout: MFI (MFI)
Numbers only here, please. The scale is MFI.

Ask: Give reported MFI value for Hab014VL3VH1-hFc (scFv, part only; not given: VL-VH linker and human IgG1 Fc, V domains shown, not shown: another chain or arm of the molecule; a dimerising Fc or GST; small tags and cut ends) VL: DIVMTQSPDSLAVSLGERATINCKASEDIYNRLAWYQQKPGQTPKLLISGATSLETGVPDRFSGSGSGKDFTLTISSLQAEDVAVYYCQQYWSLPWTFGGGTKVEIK VH: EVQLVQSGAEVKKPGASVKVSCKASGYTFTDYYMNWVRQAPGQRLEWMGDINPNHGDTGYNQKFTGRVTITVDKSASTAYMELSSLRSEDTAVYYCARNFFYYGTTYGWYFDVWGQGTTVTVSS
Reply: 332

Ask: Give reported MFI value for Hab013VL2VH2a-hFc (scFv, part only; not given: scFv linker and human IgG1 Fc, V domains shown, not shown: another chain or arm of the molecule; a dimerising Fc or GST; small tags and cut ends) VL: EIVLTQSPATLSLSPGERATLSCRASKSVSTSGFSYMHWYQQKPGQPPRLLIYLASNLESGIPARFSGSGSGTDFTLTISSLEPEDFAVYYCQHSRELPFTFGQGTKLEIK VH: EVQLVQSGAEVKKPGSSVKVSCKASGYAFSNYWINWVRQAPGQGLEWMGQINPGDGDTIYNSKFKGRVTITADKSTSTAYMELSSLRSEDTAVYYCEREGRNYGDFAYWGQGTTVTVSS
Reply: 655

Ask: Give reported MFI value for Hab006VL4VH2-hFc (scFv, part only; not given: scFv linker and human IgG1 Fc, V domains shown, not shown: another chain or arm of the molecule; a dimerising Fc or GST; small tags and cut ends) VL: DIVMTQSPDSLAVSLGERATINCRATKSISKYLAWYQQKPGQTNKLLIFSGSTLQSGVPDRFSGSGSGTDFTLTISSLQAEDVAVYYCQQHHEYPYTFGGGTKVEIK VH: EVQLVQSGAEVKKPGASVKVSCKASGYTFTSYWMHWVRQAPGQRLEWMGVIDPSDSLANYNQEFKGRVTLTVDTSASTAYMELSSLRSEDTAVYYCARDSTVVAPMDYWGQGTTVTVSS
Reply: 605

Ask: Give reported MFI value for Hab015VL5VH1b-hFc (scFv, part only; not given: VL-VH linker and human IgG1 Fc, V domains shown, not shown: another chain or arm of the molecule; a dimerising Fc or GST; small tags and cut ends) VL: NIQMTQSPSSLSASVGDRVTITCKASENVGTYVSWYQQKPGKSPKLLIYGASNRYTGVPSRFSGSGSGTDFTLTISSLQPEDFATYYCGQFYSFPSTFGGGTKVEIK VH: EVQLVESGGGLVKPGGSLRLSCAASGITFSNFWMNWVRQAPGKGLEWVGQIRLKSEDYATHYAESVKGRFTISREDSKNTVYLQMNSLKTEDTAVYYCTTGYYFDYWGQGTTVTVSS
Reply: 1350

Ask: Give reported MFI value for Hab006VL1VH4-hFc (scFv, part only; not given: VL-VH linker and human IgG1 Fc, V domains shown, not shown: another chain or arm of the molecule; a dimerising Fc or GST; small tags and cut ends) VL: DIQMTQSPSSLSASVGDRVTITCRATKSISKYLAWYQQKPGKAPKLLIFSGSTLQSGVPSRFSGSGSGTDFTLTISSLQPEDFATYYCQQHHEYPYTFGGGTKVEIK VH: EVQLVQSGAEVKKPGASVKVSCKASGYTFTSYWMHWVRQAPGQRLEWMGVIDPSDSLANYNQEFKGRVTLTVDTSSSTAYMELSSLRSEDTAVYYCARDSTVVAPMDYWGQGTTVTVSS
Reply: 627

Ask: Give reported MFI value for Hab009VL1aVH1-hFc (scFv, part only; not given: scFv linker and human IgG1 Fc, V domains shown, not shown: another chain or arm of the molecule; a dimerising Fc or GST; small tags and cut ends) VL: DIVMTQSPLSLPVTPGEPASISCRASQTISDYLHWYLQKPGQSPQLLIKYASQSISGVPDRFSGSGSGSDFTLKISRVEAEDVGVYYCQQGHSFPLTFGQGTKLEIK VH: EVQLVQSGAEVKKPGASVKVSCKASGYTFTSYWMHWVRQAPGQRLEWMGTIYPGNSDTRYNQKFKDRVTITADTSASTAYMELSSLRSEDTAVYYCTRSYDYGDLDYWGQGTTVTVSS
Reply: 383

Attribution: patent EP4786492A1
